target: α-glucosidase; experiment: α-Glucosidase inhibitory assay (pNPG substrate) and kinetic study; conditions: Dixon plot
Test readout: Ki (µM)
Express your answer in µM, writing the number without its unit.

> print(dat)
                            compound.smiles  test.readout  scale.unit  value.observed
1  CC(C)=CCc1c(-c2ccc(O)cc2O)oc2c([C@H]3C=C(C)C[C@@H](c4ccc(O)cc4O)[C@@H]3C(=O)c3ccc(O)cc3O)c(O)cc(O)c2c1=O            Ki          µM            2.51

Let us examine a further case.
Could you please provide reported Ki for "CC1=C[C@H]2c3c(O)cc(-c4cc5ccc(O)cc5o4)cc3O[C@@]3(c4ccc(O)cc4O)Oc4cc(O)ccc4[C@H](C1)[C@@H]23" ? Thanks!
1.2

* * *

IC50 reference
molecular target: α-glucosidase; assay: α-Glucosidase inhibitory assay (pNPG substrate) and kinetic study; settings: pNPG substrate; mean ± SEM of triplicate experiments
Unit nM implied. Number only.

> print(dat)
                            compound.smiles  value.observed
1  CC1=C[C@H]2c3c(O)cc(-c4cc5ccc(O)cc5o4)cc3O[C@@]3(c4ccc(O)cc4O)Oc4cc(O)ccc4[C@H](C1)[C@@H]23            1670

Please turn your attention to the following entry.
State its IC50 for this compound: "CC(C)=CCc1c(-c2ccc(O)cc2O)oc2c([C@H]3C=C(C)C[C@@H](c4ccc(O)cc4O)[C@@H]3C(=O)c3ccc(O)cc3O)c(O)cc(O)c2c1=O"
2350

* * *

Listed molecules paired with reported IC50
target: PTP1B (human recombinant) (Homo sapiens, UniProt P18031); experiment: PTP1B inhibitory assay (pNPP substrate) and kinetic study; settings: pNPP substrate; mean ± SEM of triplicate experiments; read-out: Protein Tyrosine Phosphatase 1B IC50
Sequence (P18031 whole entry): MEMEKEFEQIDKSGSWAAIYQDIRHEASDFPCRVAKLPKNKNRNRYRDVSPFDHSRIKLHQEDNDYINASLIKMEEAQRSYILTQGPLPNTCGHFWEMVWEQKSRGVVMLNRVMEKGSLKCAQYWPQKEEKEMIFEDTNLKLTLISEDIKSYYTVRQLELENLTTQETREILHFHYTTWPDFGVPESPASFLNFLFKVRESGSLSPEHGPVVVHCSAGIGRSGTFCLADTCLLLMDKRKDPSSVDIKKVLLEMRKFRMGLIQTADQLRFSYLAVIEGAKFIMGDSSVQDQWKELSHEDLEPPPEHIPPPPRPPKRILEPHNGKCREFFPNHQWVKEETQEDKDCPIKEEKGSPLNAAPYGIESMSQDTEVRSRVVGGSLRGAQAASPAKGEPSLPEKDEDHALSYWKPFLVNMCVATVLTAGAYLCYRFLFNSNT
Reply numerically in nM, unit not repeated.

Example results:
> print(dat)
                            compound.smiles  test.readout  value.observed
1  CC(C)=CCc1c(-c2ccc(O)cc2O)oc2c([C@H]3C=C(C)C[C@@H](c4ccc(O)cc4O)[C@@H]3C(=O)c3ccc(O)cc3O)c(O)cc(O)c2c1=O          IC50            2260
2  Cc1cc2c3c(c1)-c1c(O)cc(-c4cc5ccc(O)cc5o4)cc1O[C@@]3(c1ccc(O)cc1O)Oc1cc(O)ccc1-2          IC50             800

Report measured IC50 on PTP1B (human recombinant) (Homo sapiens, UniProt P18031); entry: "CC1=C[C@H]2c3c(O)cc(-c4cc5ccc(O)cc5o4)cc3O[C@@]3(c4ccc(O)cc4O)Oc4cc(O)ccc4[C@H](C1)[C@@H]23"
570
